- procedure-details: qHTS of pediatric cancer cell lines to identify multiple opportunities for drug repurposing: Primary screen for Rh18 cells (AID 1347102); further: nearly all actives have a fitted effect of over 65% in size
- condition-details: Rh18 rhabdomyosarcoma viability, CellTiter-Glo luminescence, 48 h; series mostly up to 46 µM
Inconclusive results are not listed. Calls of active or inactive are those of the source. The call rests on the fitted dose curve; in most records, active means well fitted cell-killing curve with a large enough effect; inconclusive means small, poorly fitted or top-dose-only effect; inactive means flat fitted curve, though single readings scatter.
Outcome codes: active, inactive

compound | class-name
NC1CCC(Nc2nc(Nc3ccc(C(=O)N4CCCCC4)cc3)c3ncn(-c4cccc(F)c4)c3n2)CC1 (stereo unspecified) | inactive
Cc1ccc(C(C)(O)c2nc3ccccc3s2)c(C)c1 (stereo unspecified) | inactive
COc1cc2c(cc1OC)CN(CCc1ccc(NC(=O)c3cc(OC)c(OC)cc3NC(=O)c3cnc4ccccc4c3)cc1)CC2 | inactive
O=c1c(-c2ccc(O)cc2)coc2cc(O)ccc12 | inactive
O=C1c2ccccc2-[n+]2ccc3c([nH]c4ccccc43)c21 | active
O=C(O)c1ccc(-c2c[nH]c3ncc(-c4ccccc4)cc23)cc1C1CCCC1 | inactive
Nc1ncnc2ccccc12 | inactive
COc1ccc2c3c1OC1C[C@@H](O)C=C[C@@]31CCN(C)C2 (stereo partly specified) | inactive
COc1ccc(-c2nc(N3CCOCC3)c3sc(CN(C)c4ncc(C(=O)NO)cn4)cc3n2)cn1 | active
O=C(O)Cc1cccc2ccccc12 | inactive
CC[C@H]1OC(=O)[C@H](C)[C@@H](O[C@H]2C[C@@](C)(OC)[C@@H](O)[C@H](C)O2)[C@H](C)[C@@H](O[C@@H]2O[C@H](C)C[C@H](N(C)C)[C@@H]2O)[C@](C)(O)C[C@@H](C)CN(C)[C@H](C)[C@@H](O)[C@]1(C)O | inactive
NC(=O)NN=Cc1ccc([N+](=O)[O-])o1 | inactive
CC(C)(C)C(=O)Oc1ccc2c(c1)nc(NC(=O)c1cccc([N+](=O)[O-])c1)n2CCCO | inactive
O=C(Nc1cc(Cl)cc2c1[nH]c1cnccc12)c1cccnc1 | inactive
N#Cc1ccc(NC(=O)Nc2ccccc2Br)c2n[nH]nc12 | inactive
COc1cc(NC(=O)c2ccc(-c3ccc(Cl)cc3)o2)cc(OC)c1 | inactive
CCCCC1C(=O)N(c2ccccc2)N(c2ccccc2)C1=O | inactive
O=C(O)C=Cc1ccc(O)c(O)c1 | inactive
O=C(O)c1ccccc1C(=O)Nc1ccc(-c2ccccc2)cc1 | inactive
CC(C)NCC(O)COc1cccc2[nH]ccc12 (stereo unspecified) | inactive
COc1ccc(-c2coc3cc(O)cc(O)c3c2=O)cc1 | inactive

----------
- Test system: GB4
- procedure-details: qHTS profiling for inhibitors of Plasmodium falciparum proliferation (AID 504749); further: nearly all actives have a fitted effect of over 60% in size
- condition-details: P. falciparum in erythrocytes, SYBR Green DNA, 72 h; series mostly up to 28.7 µM
Inconclusive results are not listed. Active and inactive are the calls of the source. The call rests on the fitted dose curve; in most records, active means well fitted inhibition curve with a large enough effect; inconclusive means small, poorly fitted or top-dose-only effect; inactive means flat fitted curve, though single readings scatter.
Outcome codes: T = active, F = inactive

compound | class-name
O=C(O)c1c(Cl)c(Cl)c(Cl)c(Cl)c1-c1c2cc(I)c(=O)c(I)c-2oc2c(I)c(O)c(I)cc12 | F
CC1=C(/C=C/C(C)=C/C=C/C(C)=C/C(=O)Nc2ccc(O)cc2)C(C)(C)CCC1 | T
CN(C)CCC(c1ccccc1)c1ccccn1 (configuration not stated) | T
CC(=O)N[C@@H](CS)C(=O)O | F
C[N+](C)(C)CCCCCC[N+](C)(C)C | F
CCN(CC)CCOC(=O)c1ccc(N)cc1 | F
O=C(O)Cc1cccc2ccccc12 | F
O=C(NCCN1CCOCC1)c1ccc(Cl)cc1 | F
CCCNC(=O)NS(=O)(=O)c1ccc(Cl)cc1 | F
Cc1cnc(C(=O)O)c[n+]1[O-] | F
CC(=O)CCCCn1c(=O)c2c(ncn2C)n(C)c1=O | F
COCCCCC(=NOCCN)c1ccc(C(F)(F)F)cc1 | T
CCOC(=O)O[C@]1(C(=O)OCCl)CC[C@@H]2[C@H]3CCC4=CC(=O)C=C[C@]4(C)[C@@H]3[C@@H](O)C[C@@]21C | F
O=C1NCC2(CCN(CCc3ccccc3)CC2)O1 | F
C[C@@H](O)[C@H]1C(=O)N2C(C(=O)O)=C(S[C@@H]3CN[C@H](C(=O)N(C)C)C3)[C@H](C)[C@H]12 | F
CC/C(=C(\c1ccccc1)c1ccc(OCCN(C)C)cc1)c1ccccc1 | T
Cc1cccc(C)c1OCC(C)N (configuration not stated) | T
